- measurement description: Aqueous solubility
- Type: physicochemical
- applied conditions: water
parameter: solubility (mg/mL)
Kindly answer with a numeric value in mg/mL, unit omitted.

Below, each entry is followed by its recorded solubility result.
CO[C@H]1C[C@@H]2CC[C@@H](C)[C@@](O)(O2)C(=O)C(=O)N2CCCC[C@H]2C(=O)O[C@H]([C@H](C)C[C@@H]2CC[C@@H](O)[C@H](OC)C2)CC(=O)[C@H](C)/C=C(\C)[C@@H](OC(=O)C[n+]2csc(C)c2C)[C@@H](OC)C(=O)[C@H](C)C[C@H](C)/C=C/C=C/C=C/1C ... 23.3
CO[C@H]1C[C@@H]2CC[C@@H](C)[C@@](O)(O2)C(=O)C(=O)N2CCCC[C@H]2C(=O)O[C@H]([C@H](C)C[C@@H]2CC[C@@H](OC(=O)C[n+]3cccc(C)c3)[C@H](OC)C2)CC(=O)[C@H](C)/C=C(\C)[C@@H](O)[C@@H](OC)C(=O)[C@H](C)C[C@H](C)/C=C/C=C/C=C/1C ... 6.7
CO[C@H]1C[C@@H]2CC[C@@H](C)[C@@](O)(O2)C(=O)C(=O)N2CCCC[C@H]2C(=O)O[C@H]([C@H](C)C[C@@H]2CC[C@@H](OC(=O)C[n+]3csc(C)c3C)[C@H](OC)C2)CC(=O)[C@H](C)/C=C(\C)[C@@H](O)[C@@H](OC)C(=O)[C@H](C)C[C@H](C)/C=C/C=C/C=C/1C ... 4.2
CO[C@H]1C[C@@H]2CC[C@@H](C)[C@@](O)(O2)C(=O)C(=O)N2CCCC[C@H]2C(=O)O[C@H]([C@H](C)C[C@@H]2CC[C@@H](OC(=O)C[n+]3ccccc3)[C@H](OC)C2)CC(=O)[C@H](C)/C=C(\C)[C@@H](O)[C@@H](OC)C(=O)[C@H](C)C[C@H](C)/C=C/C=C/C=C/1C ... 0.025
CO[C@H]1C[C@@H]2CC[C@@H](C)[C@@](O)(O2)C(=O)C(=O)N2CCCC[C@H]2C(=O)O[C@H]([C@H](C)C[C@@H]2CC[C@@H](O)[C@H](OC)C2)CC(=O)[C@H](C)/C=C(\C)[C@@H](OC(=O)C[n+]2cccc(C)c2)[C@@H](OC)C(=O)[C@H](C)C[C@H](C)/C=C/C=C/C=C/1C ... 26.7

We now examine a further compound.
// recorded solubility for CO[C@H]1C[C@@H]2CC[C@@H](C)[C@@](O)(O2)C(=O)C(=O)N2CCCC[C@H]2C(=O)O[C@H]([C@H](C)C[C@@H]2CC[C@@H](O)[C@H](OC)C2)CC(=O)[C@H](C)/C=C(\C)[C@@H](OC(=O)C[n+]2ccc(C)cc2)[C@@H](OC)C(=O)[C@H](C)C[C@H](C)/C=C/C=C/C=C/1C : 62

Numbers sourced from paper PMC6271078.
